Test system: HIV-1RF
Experiment: XTT cytoprotection assay (antiviral activity)
Type: cell-based
Settings: Table 2; read-out: EC50
measured-endpoint: EC50 (nM)
One number for each entry, in nM.

Here are 4 compounds together with their reported answers.
smiles-input	EC50, nM
NS(=O)(=O)c1ccc(Cn2sc3ccccc3c2=O)cc1	13800
NS(=O)(=O)c1ccc(CNC(=O)c2ccccc2SSc2ccccc2C(=O)NCc2ccc(S(N)(=O)=O)cc2)cc1	330
NS(=O)(=O)c1ccc(CCn2sc3ccccc3c2=O)cc1	2000
NS(=O)(=O)c1ccc(CCNC(=O)c2ccccc2SSc2ccccc2C(=O)NCCc2ccc(S(N)(=O)=O)cc2)cc1	410

Shifting focus to the compound that follows.
Data request: Given the compound NS(=O)(=O)c1ccc(NC(=O)CNC(=O)c2ccccc2SSc2ccccc2C(=O)NCC(=O)Nc2ccc(S(N)(=O)=O)cc2)cc1 , what is its reported EC50?
Data returned: 1600

---

Target: recombinant HIV-1 NCp7 protein (Human immunodeficiency virus type 1 group M subtype B)
Construct: recombinant HIV-1 NCp7 protein
Assay: Trp37 zinc finger fluorescence (zinc ejection) assay
Type: biochemical
Details: Table 3; average decrease in relative fluorescence
measured-endpoint: Zinc Finger Reactivity RFU/min (RFU/min)
One number for each entry, in RFU/min.

Here are 5 compounds together with their reported answers.
smiles-input	unit-symbol	Zinc Finger Reactivity RFU/min
CC(=O)Nc1ccc(S(=O)(=O)Nc2ccc(S(=O)(=O)c3ccc(NC(=O)c4ccccc4SSc4ccccc4C(=O)Nc4ccc(S(=O)(=O)c5ccc(NS(=O)(=O)c6ccc(NC(C)=O)cc6)cc5)cc4)cc3)cc2)cc1	RFU/min	5.9
O=c1c2ccccc2sn1-c1ccc(S(=O)(=O)c2ccc([N+](=O)[O-])cc2)cc1	RFU/min	4.1
CC(=O)Nc1ccc(S(=O)(=O)c2ccc(NC(=O)c3ccccc3SSc3ccccc3C(=O)Nc3ccc(S(=O)(=O)c4ccc(NC(C)=O)cc4)cc3)cc2)cc1	RFU/min	5.9
Nc1ccc(S(=O)(=O)c2ccc(NC(=O)c3ccccc3SSc3ccccc3C(=O)Nc3ccc(S(=O)(=O)c4ccc(N)cc4)cc3)cc2)cc1	RFU/min	3.3
O=C(Nc1ccc(S(=O)(=O)c2ccc(NC(=O)c3ccccc3SSc3ccccc3C(=O)Nc3ccc(S(=O)(=O)c4ccc(NC(=O)c5ccc([N+](=O)[O-])cc5)cc4)cc3)cc2)cc1)c1ccc([N+](=O)[O-])cc1	RFU/min	2.9

Data request: Given the compound CC(=O)Nc1ccc(S(=O)(=O)Nc2ccc(S(=O)(=O)c3ccc(-n4sc5ccccc5c4=O)cc3)cc2)cc1 , what is its reported Zinc Finger Reactivity RFU/min?
Data returned: 7.9

---

Molecular target: recombinant HIV-1 NCp7 protein (Human immunodeficiency virus type 1 group M subtype B)
Construct: recombinant HIV-1 NCp7 protein
Experiment: Trp37 zinc finger fluorescence (zinc ejection) assay
Assay type: biochemical
Settings: Table 6; average decrease in relative fluorescence units over 30 min
// assign True if Zinc Finger Reactivity RFU/min falls strictly below 2 RFU/min, else False (ties count as False)

Take a look at these entries with their results.
smiles-input	qualitative-label
O=C(CCCC[n+]1ccccc1)Sc1ccccc1C(=O)Nc1ccc(S(=O)(=O)c2ccc([N+](=O)[O-])cc2)cc1	False
CC(=O)NS(=O)(=O)c1ccc(NC(=O)c2ccccc2SC(=O)CCCC[n+]2ccccc2)cc1	False
O=C(CCCCBr)Sc1ccccc1C(=O)Nc1ccc(S(=O)(=O)c2ccc([N+](=O)[O-])cc2)cc1	True
O=C(O)CCCC[n+]1ccccc1.[Br-]	False

Data request: Please state whether Zinc Finger Reactivity RFU/min is below 2 RFU/min for O=C(CCCCBr)Sc1ccccc1C(=O)Nc1ccc(S(=O)(=O)c2ccc(NS(=O)(=O)Cc3ccccc3[N+](=O)[O-])cc2)cc1
Data returned: True

Data request: Please state whether Zinc Finger Reactivity RFU/min is below 2 RFU/min for CC(=O)NS(=O)(=O)c1ccc(NC(=O)c2ccccc2SC(=O)CCCCBr)cc1
Data returned: True
